// half-life lookup, one value per entry
assay: Half life in Sprague-Dawley rat at 1 mg/kg, iv; assay type: ADME, organism-based; details: in vivo
# value in min; strip the unit string

1) Cc1nc2cc(-c3ncc(Cc4ccc(F)cc4)s3)nn2c(-c2cc(F)c3c(c2C)CCCO3)c1[C@H](OC(C)(C)C)C(=O)O :: 90

Exam item: May I ask what half-life has been recorded for `Cc1cc(CNC(=O)c2cc3nc(C)c([C@H](OC(C)(C)C)C(=O)O)c(-c4cc(F)c5c(c4C)CCCO5)n3n2)ccc1F` ?
Marked response: 24

Exam item: // same read-out, input: `Cc1nc2cc(C(=O)NCCC(C)(C)C)nn2c(-c2cc(F)c3c(c2C)CCCO3)c1[C@H](OC(C)(C)C)C(=O)O`
Marked response: 42
